Tested on: SUDHL10
MEASUREMENT PROTOCOL: Co-treatment combination study with Cpd. No. 15, CellTiter-Glo viability, Loewe Volume
Assay type: cell-based
STATED CONDITIONS: in combination with Cpd. No. 15; 5-Day Cotreatment; DLBCL cell line SUDHL10
READOUT: Combination effect (Loewe Volume) SUDHL10

Q. Returns the measured Combination effect (Loewe Volume) SUDHL10 for the input compound. Input: C=CC(=O)N1CCC([C@@H]2CCNc3c(C(N)=O)c(-c4ccc(Oc5ccccc5)cc4)nn32)CC1
A. No Effect

Q. Ok, now CC#CC(=O)N1CCC[C@H]1c1nc(-c2ccc(C(=O)Nc3ccccn3)cc2)c2c(N)nccn12
A. No Effect

Q. Ok, now C=CC(=O)N1CCC[C@@H](n2nc(-c3ccc(Oc4ccccc4)cc3)c3c(N)ncnc32)C1
A. No Effect

Q. Ok, now CNC[C@@H](O)COc1ccc(Cl)c(-c2nc(-c3c(C)noc3C)c(C)c(N3CC4(CCN(C(=O)OC)CC4)C3)n2)c1
A. No Effect

====

Tested on: KARPAS422
MEASUREMENT PROTOCOL: Co-treatment combination study with Cpd. No. 15, CellTiter-Glo viability, Loewe Volume
Assay type: cell-based
STATED CONDITIONS: in combination with Cpd. No. 15, seven days, DLBCL cell line KARPAS422
READOUT: Combination effect (Loewe Volume) KARPAS422

Q. Returns the measured Combination effect (Loewe Volume) KARPAS422 for the input compound. Input: C=CC(=O)N1CCC[C@@H](n2nc(-c3ccc(Oc4ccccc4)cc3)c3c(N)ncnc32)C1
A. No Effect

Q. Ok, now C=CC(=O)N1CCC([C@@H]2CCNc3c(C(N)=O)c(-c4ccc(Oc5ccccc5)cc4)nn32)CC1
A. No Effect

Q. Ok, now CC#CC(=O)N1CCC[C@H]1c1nc(-c2ccc(C(=O)Nc3ccccn3)cc2)c2c(N)nccn12
A. No Effect

====

Test system: diffuse large B-cell lymphoma (DLBCL) cell lines
MEASUREMENT PROTOCOL: Pre-treatment model combination study with Cpd. No. 15 (7 days pre-treatment, then combination; Table G), CellTiter-Glo viability, Loewe Volume
STATED CONDITIONS: 7 days pre-treatment with Cpd. No. 15, then combination, cell line WILL2 (Cat. No. ACC 652)
READOUT: Combination effect with Cpd. No. 15 (Loewe Volume class), WILL2

Q. Returns the measured Combination effect with Cpd. No. 15 (Loewe Volume class), WILL2 for the input compound. Input: C[C@@H]1COCCN1c1cc(C2([S@](C)(=N)=O)CC2)nc(-c2cc[nH]c3nccc2-3)n1 [AZD6738]
A. No Effect

Q. Ok, now CC#CC(=O)N1CCC[C@H]1c1nc(-c2ccc(C(=O)Nc3ccccn3)cc2)c2c(N)nccn12 [Acalabrutinib, acalabrutinib]
A. No Effect

Q. Ok, now CN(C)CCCOc1ccc(-c2ccc3ncc4c(c3c2)n(C2CCOCC2)c(=O)n4C)cn1 [AZD0156]
A. No Effect

====

Tested on: DB
MEASUREMENT PROTOCOL: Co-treatment combination study with Cpd. No. 15, CellTiter-Glo viability, Loewe Volume
Format: cell-based
STATED CONDITIONS: in combination with Cpd. No. 15, seven days, DLBCL cell line DB
READOUT: Combination effect (Loewe Volume) DB

Q. API: value(readout= Combination effect (Loewe Volume) DB, system= DB, query= CNC[C@@H](O)COc1ccc(Cl)c(-c2nc(-c3c(C)noc3C)c(C)c(N3CC4(CCN(C(=O)OC)CC4)C3)n2)c1 )
A. No Effect

Q. Ok, now C=CC(=O)N1CCC[C@@H](n2nc(-c3ccc(Oc4ccccc4)cc3)c3c(N)ncnc32)C1
A. No Effect

====

System: DB
MEASUREMENT PROTOCOL: Co-treatment combination study with Cpd. No. 15, CellTiter-Glo viability, Loewe Volume
Assay type: cell-based
STATED CONDITIONS: in combination with Cpd. No. 15, seven days, DLBCL cell line DB
READOUT: Combination effect (Loewe Volume) DB

Q. Returns the measured Combination effect (Loewe Volume) DB for the input compound. Input: CC#CC(=O)N1CCC[C@H]1c1nc(-c2ccc(C(=O)Nc3ccccn3)cc2)c2c(N)nccn12
A. No Effect

Q. Ok, now C=CC(=O)N1CCC([C@@H]2CCNc3c(C(N)=O)c(-c4ccc(Oc5ccccc5)cc4)nn32)CC1
A. No Effect
